Origin of values: paper PMC3849266

Target: murine GRPRs (Mus musculus, UniProt P21729)
Construct: from tissue; host or cells: organs of male NMRI mice, in vivo (pancreas, stomach, small intestine and others)
Sequence (P21729 whole entry): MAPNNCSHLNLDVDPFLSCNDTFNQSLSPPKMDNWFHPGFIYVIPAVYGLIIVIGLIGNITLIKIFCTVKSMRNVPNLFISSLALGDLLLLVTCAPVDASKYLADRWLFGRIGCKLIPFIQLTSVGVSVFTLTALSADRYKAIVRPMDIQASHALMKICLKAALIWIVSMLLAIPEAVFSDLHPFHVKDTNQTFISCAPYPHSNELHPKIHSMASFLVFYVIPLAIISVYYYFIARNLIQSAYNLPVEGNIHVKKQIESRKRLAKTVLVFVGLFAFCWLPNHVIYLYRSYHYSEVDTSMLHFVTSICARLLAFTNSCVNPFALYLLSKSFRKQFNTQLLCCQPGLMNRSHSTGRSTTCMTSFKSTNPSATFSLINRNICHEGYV
Assay: Biodistribution and in vivo binding specificity in NMRI mice
Details: spleen, iv, total radioactivity, male NMRI mice, 45 pmol i.v., blocked (co-injected 20 nmol non-labeled peptide), 1 h p.i., read-out: Spleen uptake
measure: tissue uptake at 1 h (%ID/g)
Only the number, expressed in %ID/g, is required.

Task item: For murine GRPRs (Mus musculus, UniProt P21729), provide tissue uptake at 1 h of CC(C)C[C@H](NC(=O)C[C@H](O)[C@H](CC(C)C)NC(=O)[C@H](Cc1c[nH]cn1)NC(=O)CNC(=O)[C@@H](NC(=O)[C@H](C)NC(=O)[C@H](Cc1c[nH]c2ccccc12)NC(=O)[C@H](CCC(N)=O)NC(=O)[C@@H](Cc1ccccc1)NC(=O)COCCOCCNC(=O)CN1CCN(CC(=O)O)CCN(CC(=O)O)CC1)C(C)C)C(N)=O [[^18F]AlF-NOTA-P2-RM26] please.
Reply: 0.16

----------
Test: Biodistribution and in vivo binding specificity in PC-3 tumor-bearing BALB/c nu/nu mice
Conditions: male, BALB/c nu/nu, mouse, tumor (PC-3 xenograft), iv, 45 pmol, total radioactivity, male BALB/c nu/nu mice with PC-3 xenografts, 45 pmol i.v., 6 h p.i.; read-out: Tumor uptake
measure: tissue uptake at 6 h (%ID/g)
Only the number, expressed in %ID/g, is required.

Task item: Dear colleague, I am looking for the recorded tissue uptake at 6 h of the following compound: CC(C)C[C@H](NC(=O)C[C@H](O)[C@H](CC(C)C)NC(=O)[C@H](Cc1c[nH]cn1)NC(=O)CNC(=O)[C@@H](NC(=O)[C@H](C)NC(=O)[C@H](Cc1c[nH]c2ccccc12)NC(=O)[C@H](CCC(N)=O)NC(=O)[C@@H](Cc1ccccc1)NC(=O)COCCOCCNC(=O)CN1CCN(CC(=O)O)CCN(CC(=O)O)CC1)C(C)C)C(N)=O [[^18F]AlF-NOTA-P2-RM26]
Reply: 2.3

----------
Test: Biodistribution and in vivo binding specificity in PC-3 tumor-bearing BALB/c nu/nu mice
Conditions: mouse, gastrointestinal tract (whole sample), iv, total radioactivity; male BALB/c nu/nu mice with PC-3 xenografts, 45 pmol i.v., 6 h p.i.; read-out: GI tract uptake
measure: tissue uptake dose at 6 h (%ID)
Only the number, expressed in %ID, is required.

Task item: Dear colleague, I am looking for the recorded tissue uptake dose at 6 h of the following compound: CC(C)C[C@H](NC(=O)C[C@H](O)[C@H](CC(C)C)NC(=O)[C@H](Cc1c[nH]cn1)NC(=O)CNC(=O)[C@@H](NC(=O)[C@H](C)NC(=O)[C@H](Cc1c[nH]c2ccccc12)NC(=O)[C@H](CCC(N)=O)NC(=O)[C@@H](Cc1ccccc1)NC(=O)COCCOCCNC(=O)CN1CCN(CC(=O)O)CCN(CC(=O)O)CC1)C(C)C)C(N)=O [[^18F]AlF-NOTA-P2-RM26]
Reply: 3

----------
Assay: Biodistribution and in vivo binding specificity in PC-3 tumor-bearing BALB/c nu/nu mice
Conditions: male, BALB/c nu/nu, mouse, small intestine, iv, total radioactivity, male BALB/c nu/nu mice with PC-3 xenografts, 45 pmol i.v., blocked (co-injected 20 nmol non-labeled peptide), 1 h p.i.; read-out: Small intestine uptake
From the text: All animal studies were planned and performed in accordance with the national legislation on the protection of laboratory animals and the Ethic Committee for Animal Research of the Uppsala University approved the study plans. Randomly divided groups of 4 mice per data point were used in all experiments. […] BALB/c nu/nu male mice with PC-3 xenografts (weight 20±1 g at the time of the experiment) were used for tumor targeting and imaging studies. […]
measure: tissue uptake at 1 h (%ID/g)
Only the number, expressed in %ID/g, is required.

Task item: Dear colleague, I am looking for the recorded tissue uptake at 1 h of the following compound: CC(C)C[C@H](NC(=O)C[C@H](O)[C@H](CC(C)C)NC(=O)[C@H](Cc1c[nH]cn1)NC(=O)CNC(=O)[C@@H](NC(=O)[C@H](C)NC(=O)[C@H](Cc1c[nH]c2ccccc12)NC(=O)[C@H](CCC(N)=O)NC(=O)[C@@H](Cc1ccccc1)NC(=O)COCCOCCNC(=O)CN1CCN(CC(=O)O)CCN(CC(=O)O)CC1)C(C)C)C(N)=O [[^18F]AlF-NOTA-P2-RM26]
Reply: 2.6
